# target: Opioid receptor (Rattus norvegicus) (UniProt P33533+P34975+P33535)
# Sequence (P33533 whole entry, looked up): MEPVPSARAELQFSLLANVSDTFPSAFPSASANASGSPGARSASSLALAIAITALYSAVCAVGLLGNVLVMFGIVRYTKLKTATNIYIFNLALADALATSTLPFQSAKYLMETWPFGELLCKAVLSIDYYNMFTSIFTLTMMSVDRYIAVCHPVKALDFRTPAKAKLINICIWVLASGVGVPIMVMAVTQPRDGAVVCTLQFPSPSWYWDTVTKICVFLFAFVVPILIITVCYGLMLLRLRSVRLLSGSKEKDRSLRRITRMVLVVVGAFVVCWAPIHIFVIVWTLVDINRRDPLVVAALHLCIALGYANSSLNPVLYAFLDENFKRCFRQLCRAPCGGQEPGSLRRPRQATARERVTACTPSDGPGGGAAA
# Sequence (P33535 whole entry, looked up): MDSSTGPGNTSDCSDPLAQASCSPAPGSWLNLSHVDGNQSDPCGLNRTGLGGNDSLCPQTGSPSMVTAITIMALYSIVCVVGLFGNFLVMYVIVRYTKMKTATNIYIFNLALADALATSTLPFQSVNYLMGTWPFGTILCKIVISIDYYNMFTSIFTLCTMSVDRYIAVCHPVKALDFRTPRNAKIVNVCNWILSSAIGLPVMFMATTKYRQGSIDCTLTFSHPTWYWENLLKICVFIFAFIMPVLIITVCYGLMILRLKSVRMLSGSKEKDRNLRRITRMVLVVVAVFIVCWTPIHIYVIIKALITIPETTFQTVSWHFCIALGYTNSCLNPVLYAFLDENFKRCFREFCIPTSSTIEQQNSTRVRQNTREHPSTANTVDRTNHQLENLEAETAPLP
# Sequence (P34975 whole entry, looked up): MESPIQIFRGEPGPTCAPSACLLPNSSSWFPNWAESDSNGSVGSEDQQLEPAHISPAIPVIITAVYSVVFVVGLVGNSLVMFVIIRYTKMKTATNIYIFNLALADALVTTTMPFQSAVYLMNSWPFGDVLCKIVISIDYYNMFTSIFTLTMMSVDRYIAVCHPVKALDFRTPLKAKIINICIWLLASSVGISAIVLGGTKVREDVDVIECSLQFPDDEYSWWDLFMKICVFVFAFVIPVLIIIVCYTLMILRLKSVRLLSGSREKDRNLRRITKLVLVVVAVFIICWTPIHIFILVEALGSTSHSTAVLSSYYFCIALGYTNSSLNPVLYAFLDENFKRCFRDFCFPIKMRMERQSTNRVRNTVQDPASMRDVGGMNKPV
# assay text: Ratio of IC50 value in presence of NaCl to that of NaCl absence against opioid receptor.
# Assay type: protein assay
Quick list: Ratio per entry.
measure name: Ratio

                                    compound  measure_name  readout_relation  recorded_result
 0  CC1CC2(CCC3(O)C4Cc5ccc(O)c6c5[C@@]3(CCN4C)C2O6)OC1=O (stereo not given in full)         Ratio                 =             16.7
 1  C=C1C(=O)OC2C1CC1(O)[C@H]3Cc4ccc(O)c5c4[C@@]1(CCN3CC1CC1)C2O5 (stereo not given in full)         Ratio                 =              0.7
 2  CC1=CC2(CCC3(O)[C@H]4Cc5ccc(O)c6c5[C@@]3(CCN4CC3CC3)C2O6)OC1=O (stereo not given in full)         Ratio                 =              1.8
 3  CCOC(=O)[C@H]1OC12CCC1(O)[C@H]3Cc4ccc(O)c5c4[C@@]1(CCN3CC1CC1)C2O5 (stereo not given in full)         Ratio                 =              1.5
 4  CCOC(=O)[C@H]1OC12CCC1(O)C3Cc4ccc(O)c5c4[C@@]1(CCN3C)C2O5 (stereo not given in full)         Ratio                 =             14.2
 5  CCOC(=O)[C@@H]1OC12CCC1(O)[C@H]3Cc4ccc(O)c5c4[C@@]1(CCN3CC1CC1)C2O5 (stereo not given in full)         Ratio                 =                1
 6  C=C1CC2(CCC3(O)[C@H]4Cc5ccc(O)c6c5[C@@]3(CCN4CC3CC3)C2O6)OC1=O (stereo in doubt; 6a)         Ratio                 =              1.2
 7  O=C1C=CC2(CCC3(O)[C@H]4Cc5ccc(O)c6c5[C@@]3(CCN4CC3CC3)C2O6)O1 (stereo not given in full)         Ratio                 =                1
 8  CC1=CC2(CCC3(O)C4Cc5ccc(O)c6c5[C@@]3(CCN4C)C2O6)OC1=O (stereo not given in full)         Ratio                 >                5
 9  Oc1ccc2c3c1OC1C4(CCC5(O)[C@@H](C2)N(CC2CC2)CC[C@]315)CO4 (stereo in doubt; 13a)         Ratio                 =              0.6
10  C=C1C(=O)OC2=C1CC1(O)[C@H]3Cc4ccc(O)c5c4[C@@]1(CCN3CC1CC1)C2O5 (stereo not given in full)         Ratio                 =              0.5
11  CN1CC[C@]23c4c5ccc(O)c4OC2C2(CCC3(O)C1C5)CO2 (stereo not given in full)         Ratio                 =              7.5
12  CCOC(=O)[C@@H]1OC12CCC1(O)C3Cc4ccc(O)c5c4[C@@]1(CCN3C)C2O5 (stereo not given in full)         Ratio                 =             13.3
13  C=C1CC2(CCC3(O)[C@H]4Cc5ccc(O)c6c5[C@@]3(CCN4CC3CC3)C2O6)OC1=O (stereo in doubt; 5a)         Ratio                 =              0.4
14  CC1CC2(CCC3(O)[C@H]4Cc5ccc(O)c6c5[C@@]3(CCN4CC3CC3)C2O6)OC1=O (stereo not given in full)         Ratio                 =              0.6
